assay: Amount of fragrance ingredients retained on paper blotter after evaporation (ethanol extraction, GC-MS); assay type: physicochemical; settings: Table 6; fragrance TAK in C4; 480 min; 32°C
Property: amount of fragrance ingredient retained on blotter (percentage of the initial amount) (%)
Give just the numeric value; % need not be written.

Problem: Looking for the measured amount of fragrance ingredient retained on blotter (percentage of the initial amount) of C=CC(C)(CCC=C(C)C)OC(C)=O (stereo not drawn) [Linalyl acetate] , can you help?
Result: 10

Problem: Looking for the measured amount of fragrance ingredient retained on blotter (percentage of the initial amount) of CCCCCCOC(C)=O [Hexyl acetate, Hexyl Acetate] , can you help?
Result: 3

Problem: Looking for the measured amount of fragrance ingredient retained on blotter (percentage of the initial amount) of CC(=O)OC1CCCCC1C(C)(C)C (stereo not drawn) [Verdox™, (2-tert-butylcyclohexyl) acetate] , can you help?
Result: 3

====

assay: Amount of fragrance ingredients retained on paper blotter after evaporation (ethanol extraction, GC-MS); assay type: physicochemical; settings: Table 6; fragrance TAK in C4; 15 min; 32°C
amount of fragrance ingredient retained on blotter (percentage of the initial amount) values for the compounds below.
Write the quantity with the unit trailing the number.

Worked set:
>  <Compound>
C=CC(C)(O)CCC=C(C)C (centres unmarked)

>  <Result>
81%

$$$$
>  <Compound>
O=C1CCCCCCCCCCCC(=O)OCCO1 [Ethylene Brassylate]

>  <Result>
100%

$$$$
>  <Compound>
C=C(C)[C@H]1CC=C(C)CC1

>  <Result>
17%

$$$$

Shift focus to the following entry.
Problem: Looking for the measured amount of fragrance ingredient retained on blotter (percentage of the initial amount) of CC(=O)OC1CCCCC1C(C)(C)C (centres unmarked) [Verdox™, (2-tert-butylcyclohexyl) acetate] , can you help?
Result: 83%

====

amount of fragrance ingredient retained on blotter (percentage of the initial amount) values for the compounds below.
test: Amount of fragrance ingredients retained on paper blotter after evaporation (ethanol extraction, GC-MS); assay type: physicochemical; settings: Table 6; fragrance TAK in C4; 120 min; 32°C
Give just the numeric value; % need not be written.

Worked set:
>  <Compound>
CC(=O)OC1CCCCC1C(C)(C)C (stereo not drawn) [Verdox™, (2-tert-butylcyclohexyl) acetate]

>  <Numeric Value>
36

$$$$
>  <Compound>
C=CC(C)(O)CCC=C(C)C (stereo not drawn) [Linalool]

>  <Numeric Value>
28

$$$$

Shift focus to the following entry.
Problem: Looking for the measured amount of fragrance ingredient retained on blotter (percentage of the initial amount) of O=C1CCCCCCCCCCCC(=O)OCCO1 [Ethylene Brassylate] , can you help?
Result: 96

====

Test: Amount of fragrance ingredients retained on paper blotter after evaporation (ethanol extraction, GC-MS)
Format: physicochemical
Details: Table 5; fragrance TAK in EdT1; 60 min; 32°C
Description: A fragrance (hereafter fragrance TAK, the formulation of which is shown in table 1) was formulated in a typical Eau de Toilette (EdT1) or in fragrance compositions according to the invention (compositions C1 to C4), as shown in table 2. The amount of individual fragrance ingredients retained on paper substrate (blotter) after set time periods was assessed by the following method. […]
amount of fragrance ingredient retained on blotter (percentage of the initial amount) values for the compounds below.

>  <Compound>
C=C(C)[C@H]1CC=C(C)CC1 [Limonene]

>  <Result>
<1%

$$$$
>  <Compound>
CC(C=O)Cc1ccc(C(C)(C)C)cc1 (centres unmarked) [Lilial™, 3-(4-tert-Butylphenyl)-2-methylpropanal]

>  <Result>
84%

$$$$
>  <Compound>
C=CC(C)(O)CCC=C(C)C (centres unmarked) [Linalool]

>  <Result>
9%

$$$$
>  <Compound>
CCCCCCOC(C)=O [Hexyl acetate, Hexyl Acetate]

>  <Result>
2%

$$$$
>  <Compound>
O=C1CCCCCCCCCCCC(=O)OCCO1 [Ethylene Brassylate]

>  <Result>
85%

$$$$

Problem: Looking for the measured amount of fragrance ingredient retained on blotter (percentage of the initial amount) of CC/C=C\CCOC(=O)c1ccccc1O [Cis 3-hexenyl salicylate, Cis-3-hexenyl salicylate] , can you help?
Result: 87%

Problem: Looking for the measured amount of fragrance ingredient retained on blotter (percentage of the initial amount) of C=CC(C)(CCC=C(C)C)OC(C)=O (centres unmarked) [Linalyl acetate] , can you help?
Result: 26%

Problem: Looking for the measured amount of fragrance ingredient retained on blotter (percentage of the initial amount) of CC(=O)OC1CCCCC1C(C)(C)C (centres unmarked) [Verdox™, (2-tert-butylcyclohexyl) acetate] , can you help?
Result: 27%

====

amount of fragrance ingredient retained on blotter (percentage of the initial amount) values for the compounds below.
test: Amount of fragrance ingredients retained on paper blotter after evaporation (ethanol extraction, GC-MS); assay type: physicochemical; details: Table 5; fragrance TAK in C3; 60 min; 32°C
Give just the numeric value; % need not be written.

Problem: Looking for the measured amount of fragrance ingredient retained on blotter (percentage of the initial amount) of CC(C=O)Cc1ccc(C(C)(C)C)cc1 (stereo not shown) [Lilial™, 3-(4-tert-Butylphenyl)-2-methylpropanal] , can you help?
Result: 92

Problem: Looking for the measured amount of fragrance ingredient retained on blotter (percentage of the initial amount) of C=CC(C)(O)CCC=C(C)C (stereo not shown) [Linalool] , can you help?
Result: 61

Problem: Looking for the measured amount of fragrance ingredient retained on blotter (percentage of the initial amount) of CC/C=C\CCOC(=O)c1ccccc1O [Cis 3-hexenyl salicylate, Cis-3-hexenyl salicylate] , can you help?
Result: 84

====

Assay: Amount of fragrance ingredients retained on paper blotter after evaporation (ethanol extraction, GC-MS)
Type: physicochemical
Conditions: Table 6; fragrance TAK in EdT1; 240 min; 32°C
Protocol: A fragrance (hereafter fragrance TAK, the formulation of which is shown in table 1) was formulated in a typical Eau de Toilette (EdT1) or in fragrance compositions according to the invention (compositions C1 to C4), as shown in table 2. The amount of individual fragrance ingredients retained on paper substrate (blotter) after set time periods was assessed by the following method. […]
Property: amount of fragrance ingredient retained on blotter (percentage of the initial amount)

Worked set:
>  <Compound>
CC(=O)OC1CCCCC1C(C)(C)C (stereo not drawn) [Verdox™, (2-tert-butylcyclohexyl) acetate]

>  <Result>
<1%

$$$$
>  <Compound>
C=CC(C)(O)CCC=C(C)C (stereo not drawn) [Linalool]

>  <Result>
<1%

$$$$

Shift focus to the following entry.
Problem: Looking for the measured amount of fragrance ingredient retained on blotter (percentage of the initial amount) of C=C(C)[C@H]1CC=C(C)CC1 [Limonene] , can you help?
Result: <1%

====

amount of fragrance ingredient retained on blotter (percentage of the initial amount) values for the molecules below.
Assay: Amount of fragrance ingredients retained on paper blotter after evaporation (ethanol extraction, GC-MS)
Assay type: physicochemical
Settings: Table 9; fragrance COM1 in EdT2; T0 + 15 min
Procedure: A fragrance (hereafter fragrance TAK, the formulation of which is shown in table 1) was formulated in a typical Eau de Toilette (EdT1) or in fragrance compositions according to the invention (compositions C1 to C4), as shown in table 2. The amount of individual fragrance ingredients retained on paper substrate (blotter) after set time periods was assessed by the following method. […]
Give just the numeric value; % need not be written.

>  <Molecule>
C=CC(C)(O)CCC=C(C)CC (mixture of isomers) [Ethyl Linalool, Ethyl linalool]

>  <Numeric Value>
67.48

$$$$
>  <Molecule>
CC1(C)CCC[C@]2(C)[C@H]3CCO[C@]3(C)CC[C@@H]12 [Ambroxan™]

>  <Numeric Value>
81.5

$$$$
>  <Molecule>
CC(C)(C)c1ccc(CCC=O)cc1 [Bourgeonal™, 3-(4-tert-butylphenyl)propanal]

>  <Numeric Value>
81.4

$$$$
>  <Molecule>
CC=CC(=O)C1=C(C)CCCC1(C)C [Damascone beta]

>  <Numeric Value>
78.2

$$$$
>  <Molecule>
CC/C=C(\C)C(O)CCCCC (stereo not drawn) [Undecavertol™, (E)-4-methyldec-3-en-5-ol]

>  <Numeric Value>
75.7

$$$$

Shift focus to the following entry.
Problem: Looking for the measured amount of fragrance ingredient retained on blotter (percentage of the initial amount) of CC(C=O)Cc1ccc(C(C)C)cc1 (stereo not drawn) [Cyclamen aldehyde] , can you help?
Result: 81.5

====

test: Amount of fragrance ingredients retained on paper blotter after evaporation (ethanol extraction, GC-MS); type: physicochemical; details: Table 9; fragrance COM1 in C6; T0 +1440 min
Property: amount of fragrance ingredient retained on blotter (percentage of the initial amount)

Worked set:
>  <Molecule>
CC(C)(C)c1ccc(CCC=O)cc1

>  <Result>
20.9%

$$$$
>  <Molecule>
CC=CC(=O)C1=C(C)CCCC1(C)C

>  <Result>
1.9%

$$$$
>  <Molecule>
CC(=O)OC1CCCCC1C(C)(C)C (stereo not drawn) [Verdox™, (2-tert-butylcyclohexyl) acetate]

>  <Result>
1.0%

$$$$
>  <Molecule>
C=C(C)[C@H]1CC=C(C)CC1

>  <Result>
<1%

$$$$
>  <Molecule>
C=CC(C)(O)CCC=C(C)CC (mixture of isomers)

>  <Result>
2.6%

$$$$

Problem: Looking for the measured amount of fragrance ingredient retained on blotter (percentage of the initial amount) of CC(C=O)Cc1ccc(C(C)C)cc1 (stereo not drawn) , can you help?
Result: 12.0%
